Reference source for all entries: patent US20110053982A1

Kindly state FAAH_KINACTR:rFAAH:kobs/I for each of the entries shown.
TARGET: rFAAH (Rattus norvegicus, UniProt P97612)
Sequence (P97612 1-579): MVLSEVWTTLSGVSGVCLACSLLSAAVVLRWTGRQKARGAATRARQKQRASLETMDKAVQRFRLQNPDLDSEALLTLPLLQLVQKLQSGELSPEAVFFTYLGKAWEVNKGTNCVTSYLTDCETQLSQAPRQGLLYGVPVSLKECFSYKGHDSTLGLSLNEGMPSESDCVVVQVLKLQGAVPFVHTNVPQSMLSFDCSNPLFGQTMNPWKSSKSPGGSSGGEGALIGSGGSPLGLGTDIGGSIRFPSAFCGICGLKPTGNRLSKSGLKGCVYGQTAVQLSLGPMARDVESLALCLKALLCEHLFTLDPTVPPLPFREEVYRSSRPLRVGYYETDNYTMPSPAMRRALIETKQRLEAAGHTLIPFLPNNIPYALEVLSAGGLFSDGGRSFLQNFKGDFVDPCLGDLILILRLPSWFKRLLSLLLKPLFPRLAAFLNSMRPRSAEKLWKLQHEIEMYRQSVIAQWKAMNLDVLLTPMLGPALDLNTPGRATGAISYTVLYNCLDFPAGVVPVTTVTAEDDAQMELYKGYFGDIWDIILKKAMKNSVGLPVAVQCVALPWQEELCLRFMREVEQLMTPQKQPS
ASSAY: FAAH assay, rFAAH kobs/I
Format: biochemical
ASSAY_CONDITIONS: additional data table, unit not given
Answer as a number with no unit attached.

Q: Give the value of FAAH_KINACTR:rFAAH:kobs/I reported for the following: `Cc1ncsc1CCOc1cccc(C=C2CCN(C(=O)Nc3onc(C)c3C)CC2)c1`
Result: 1920

Q: For the compound `Cc1noc(NC(=O)N2CCC(=Cc3cccc(OCC4CCC(F)(F)CC4)c3)CC2)c1C` , give its measured FAAH_KINACTR:rFAAH:kobs/I value.
Result: 5360

Q: Tell us which FAAH_KINACTR:rFAAH:kobs/I value is on record for `Cc1cccc(OCCOc2cccc(C=C3CCN(C(=O)Nc4onc(C)c4C)CC3)c2)c1`
Result: 7840

Q: Output measured FAAH_KINACTR:rFAAH:kobs/I for this item: CCCC(C)Oc1cccc(C=C2CCN(C(=O)Nc3onc(C)c3C)CC2)c1 (stereo not shown)
Result: 4610
